Target: Polyunsaturated fatty acid 5-lipoxygenase (Homo sapiens, UniProt P09917)
Sequence (P09917 whole entry): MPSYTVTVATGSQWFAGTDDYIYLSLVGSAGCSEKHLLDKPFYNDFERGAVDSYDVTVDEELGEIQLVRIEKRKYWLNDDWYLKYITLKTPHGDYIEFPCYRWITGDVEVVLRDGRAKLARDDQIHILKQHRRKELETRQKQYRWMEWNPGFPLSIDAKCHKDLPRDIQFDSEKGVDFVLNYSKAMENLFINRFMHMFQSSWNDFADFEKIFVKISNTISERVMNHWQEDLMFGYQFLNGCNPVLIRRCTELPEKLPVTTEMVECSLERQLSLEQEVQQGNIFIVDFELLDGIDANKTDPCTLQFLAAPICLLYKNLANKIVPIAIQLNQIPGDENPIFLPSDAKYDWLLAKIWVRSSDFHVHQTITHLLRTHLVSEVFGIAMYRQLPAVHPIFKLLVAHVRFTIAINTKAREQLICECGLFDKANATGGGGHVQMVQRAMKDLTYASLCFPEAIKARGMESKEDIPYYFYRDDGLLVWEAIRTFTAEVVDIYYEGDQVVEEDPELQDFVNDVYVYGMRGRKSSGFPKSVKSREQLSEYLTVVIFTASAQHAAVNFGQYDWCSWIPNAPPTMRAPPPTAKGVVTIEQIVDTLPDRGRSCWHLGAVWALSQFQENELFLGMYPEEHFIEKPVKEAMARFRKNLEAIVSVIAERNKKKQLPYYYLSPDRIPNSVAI
Test: Inhibition of 5-LO in human polymorphonuclear leukocytes preincubated for 10 mins followed by addition of arachidonic acid as substrate measured after 10 mins by HPLC method
Format: cell-based
Details: read-out: IC50
pIC50: −log10 of the molar value.
RESULT TYPE: pIC50

# COMPOUND, RESULT
measured = [
    ("COc1cc(O)c(CC=C(C)C)c(O)c1C(=O)/C=C/c1ccc(O)cc1", 5.54),
    ("COc1cc2c(c(O)c1C(=O)/C=C/c1ccc(O)cc1)C=CC(C)(C)O2", "< 5.00"),
    ("CC(C)=CCC1(O)C(=O)C(CC=C(C)C)(CC=C(C)C)C(=O)C(C(=O)C(C)C)=C1O (stereo not given)", "< 5.00"),
    ("CC(C)=CCc1c(O)cc(O)c2c1O[C@H](c1ccc(O)cc1)CC2=O", "< 5.00"),
]

From here, focus on the item given below.
**Query** Tell me its pIC50 given CC(C)=CCC1=C(O)[C@](O)(CC=C(C)C)C(=O)C(C(=O)CC(C)C)=C1O as the entry.
**Result** < 5.00

---

Molecular target: Polyunsaturated fatty acid 5-lipoxygenase (Homo sapiens, UniProt P09917)
Assay: Inhibition of recombinant human 5-LO expressed in Escherichia coli MV1190 cells preincubated for 10 mins followed by addition of arachidonic acid as substrate measured after 10 mins by RP-HPLC method
Conditions: read-out: IC50
RESULT TYPE: pIC50
One number for each entry, as −log10 of the molar value.

Some solved cases for reference:
# COMPOUND, pIC50
measured = [
    ("CC(C)=CCC1=C(O)[C@](O)(CC=C(C)C)C(=O)C(C(=O)CC(C)C)=C1O", 5.03),
    ("CC(C)=CCC1(O)C(=O)C(CC=C(C)C)(CC=C(C)C)C(=O)C(C(=O)C(C)C)=C1O (stereo unspecified)", 5.23),
]

Proceed to the following item.
**Query** Using known records, supply pIC50 for COc1cc(O)c(CC=C(C)C)c(O)c1C(=O)/C=C/c1ccc(O)cc1
**Result** 5.68

---

Biological target: Polyunsaturated fatty acid 5-lipoxygenase (Homo sapiens)
Assay: Inhibition of 5-LO in human polymorphonuclear leukocytes assessed as residual activity at 10 uM preincubated for 10 mins followed by addition of arachidonic acid as substrate measured after 10 mins by HPLC method relative to control
Format: cell-based
RESULT TYPE: Activity (%)
Answers are plain numbers, in %.

The cases that follow already have their Activity on record.
# MOLECULE, Activity, %
rows = [
    ("CC(C)=CCC1=C(O)[C@](O)(CC=C(C)C)C(=O)C(C(=O)CC(C)C)=C1O", 63.1),
    ("CC(C)=CCC1(O)C(=O)C(CC=C(C)C)(CC=C(C)C)C(=O)C(C(=O)C(C)C)=C1O (centres undefined)", 57.5),
    ("CC(C)=CCc1c(O)cc(O)c2c1O[C@H](c1ccc(O)cc1)CC2=O", 87.5),
]

# evaluate next
**Query** Please list Activity recorded for the molecule COc1cc2c(c(O)c1C(=O)/C=C/c1ccc(O)cc1)C=CC(C)(C)O2 [XANTHOHUMOL C]
**Result** 56.8

---

Molecular target: Prostaglandin E synthase (Homo sapiens)
Sequence (whole entry): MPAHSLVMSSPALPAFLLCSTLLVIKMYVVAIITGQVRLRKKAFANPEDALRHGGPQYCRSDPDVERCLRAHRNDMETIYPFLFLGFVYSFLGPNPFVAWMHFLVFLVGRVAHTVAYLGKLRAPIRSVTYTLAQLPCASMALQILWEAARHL
Test: Inhibition of mPGES-1 in microsomes of IL1-beta induced human A549 cells assessed as PGE2 formation by measuring enzyme residual activity at 10 uM preincubated for 15 mins followed by addition of PGH2 as substrate measured after 1 min by RP-HPLC method relative to control
Please provide measured Activity for the entries that follow.
Numbers only, in %.

Below, each entry is followed by its recorded Activity result.
# COMPOUND, Activity, %
rows = [
    ("COc1cc(O)c(CC=C(C)C)c(O)c1C(=O)/C=C/c1ccc(O)cc1", 32.3),
    ("COc1cc2c(c(O)c1C(=O)/C=C/c1ccc(O)cc1)C=CC(C)(C)O2", 35.3),
    ("CC(C)=CCc1c(O)cc(O)c2c1O[C@H](c1ccc(O)cc1)CC2=O", 56.5),
    ("CC(C)=CCC1(O)C(=O)C(CC=C(C)C)(CC=C(C)C)C(=O)C(C(=O)C(C)C)=C1O (configuration not stated)", 32.8),
    ("CC(C)=CCc1c(O)cc(O)c(-c2c(O)cc(O)c(CC=C(C)C)c2O)c1O", 40.2),
]

Provide Activity for all items below, preserving their order.
1. CC(C)=CCC1=C2O[C@@H](C(C)(C)O)C[C@@]2(O)C(=O)C(C(=O)CC(C)C)=C1O
2. CC(C)=CCC1=C(O)[C@](O)(CC=C(C)C)C(=O)C(C(=O)CC(C)C)=C1O

**Result**
[52.7, 49.7]

---

Biological target: Polyunsaturated fatty acid 5-lipoxygenase (Homo sapiens, UniProt P09917)
Assay: Inhibition of recombinant human 5-LO expressed in Escherichia coli MV1190 cells preincubated for 10 mins followed by addition of arachidonic acid as substrate measured after 10 mins by RP-HPLC method
Conditions: read-out: IC50
RESULT TYPE: IC50

Example entries and their recorded answers appear below.
# SMILES REPR, TGT, RESULT
data = [
    ("CC(C)=CCc1c(O)cc(O)c2c1O[C@H](c1ccc(O)cc1)CC2=O", "Polyunsaturated fatty acid 5-lipoxygenase (Homo sapiens, UniProt P09917)", "> 10 µM"),
    ("CC(C)=CCC1=C2O[C@@H](C(C)(C)O)C[C@@]2(O)C(=O)C(C(=O)CC(C)C)=C1O", "Polyunsaturated fatty acid 5-lipoxygenase (Homo sapiens, UniProt P09917)", "> 10 µM"),
]

Consider the additional molecule presented here.
**Query** Output measured IC50 for this item: COc1cc2c(c(O)c1C(=O)/C=C/c1ccc(O)cc1)C=CC(C)(C)O2
**Result** > 10 µM
